src = PubChem BioAssay AID463204

test system: S. cerevisiae Mot1-301 ts growth rescue, BacTiter-Glo ATP luminescence; assay: restored Mot1-301 yeast growth at 38.5C – whole organism, S. cerevisiae, Mot1-301 ts mutant, luminescence, dose retest, SUMOylation pathway inhibitor project, confirmation (AID 463204);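 also: growth at restrictive 38.5 degrees C of Mot1-301 OY566 strain; actives raise luminescence by restoring growth of the ts mutant at high temperature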
The source made the active and inactive calls.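 The calls were made as follows: active = AC50 no more than ten times the top concentration tested, that is within one log above it; inconclusive = flat curve fit with activity between 30% and 70%, or invalid poor fit; inactive = AC50 beyond ten times the top tested dose.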
Classes used: active, inactive

INSERT INTO assay_data (compound, target_or_system, cat) VALUES
  ('C=CCOC(=O)C(C#N)c1nc2ccccc2nc1N1CCN(Cc2ccccc2)CC1 (centres undefined)', 'S. cerevisiae Mot1-301 ts growth rescue, BacTiter-Glo ATP luminescence', 'inactive'),
  ('Cn1cc(C(=O)N2CCCC(Nc3ccc(F)cc3)C2)c2ccccc21 (centres undefined)', 'S. cerevisiae Mot1-301 ts growth rescue, BacTiter-Glo ATP luminescence', 'inactive'),
  ('Cc1[nH]c2ccccc2c1/C=N/NC(=O)c1cccc(Br)c1', 'S. cerevisiae Mot1-301 ts growth rescue, BacTiter-Glo ATP luminescence', 'inactive'),
  ('CCCCOc1ccc(CSC(=N)N)cc1Cl', 'S. cerevisiae Mot1-301 ts growth rescue, BacTiter-Glo ATP luminescence', 'inactive'),
  ('CC(C)CC(=O)Nc1ccc(C(=O)CN2C(=O)NC3(CCOc4ccccc43)C2=O)cc1 (centres undefined)', 'S. cerevisiae Mot1-301 ts growth rescue, BacTiter-Glo ATP luminescence', 'inactive'),
  ('Cc1cccc(CS(=O)(=O)Cc2ccc(C(=O)NCC3CCCO3)o2)c1 (centres undefined)', 'S. cerevisiae Mot1-301 ts growth rescue, BacTiter-Glo ATP luminescence', 'inactive'),
  ('O=C(O)CCC(=O)Nc1cccc(C(=O)Nc2ccc(Br)cc2)c1', 'S. cerevisiae Mot1-301 ts growth rescue, BacTiter-Glo ATP luminescence', 'inactive'),
  ('CC1=C(C(N)=O)C(c2ccccn2)n2nc(SCc3ccccc3Cl)nc2N1 (centres undefined)', 'S. cerevisiae Mot1-301 ts growth rescue, BacTiter-Glo ATP luminescence', 'inactive'),
  ('CCC(=O)N1CCc2cc(S(=O)(=O)CCC(=O)Nc3cccc(C)n3)ccc21', 'S. cerevisiae Mot1-301 ts growth rescue, BacTiter-Glo ATP luminescence', 'inactive'),
  ('CCCOc1ccccc1C1NC(=O)NC(C)=C1C(=O)OCc1ccccc1 (centres undefined)', 'S. cerevisiae Mot1-301 ts growth rescue, BacTiter-Glo ATP luminescence', 'inactive'),
  ('COc1cc(C(=O)OCC(=O)NC(C)CCc2ccccc2)cc(OC)c1OC (centres undefined)', 'S. cerevisiae Mot1-301 ts growth rescue, BacTiter-Glo ATP luminescence', 'inactive'),
  ('Cc1ccc(NS(=O)(=O)c2ccc(NC(=O)C3CCCO3)cc2)cc1 (centres undefined)', 'S. cerevisiae Mot1-301 ts growth rescue, BacTiter-Glo ATP luminescence', 'inactive'),
  ('C=C1C(O)[C@@H]2O[C@]3(CC[C@H](/C=C/C(C)[C@@H]4CC(C)=CC5(O[C@H](C[C@@](C)(O)C(=O)O)CCC5O)O4)O3)CC[C@H]2O[C@@H]1C(O)CC(C)[C@H]1OC2(CCCCO2)CCC1C (some centres undefined)', 'S. cerevisiae Mot1-301 ts growth rescue, BacTiter-Glo ATP luminescence', 'active'),
  ('COc1ccc(-c2c(C)nn3c(C)cc(C)nc23)cc1', 'S. cerevisiae Mot1-301 ts growth rescue, BacTiter-Glo ATP luminescence', 'inactive'),
  ('O=c1[nH]c(O)c(N=Nc2cc([N+](=O)[O-])ccc2O)c(=O)[nH]1', 'S. cerevisiae Mot1-301 ts growth rescue, BacTiter-Glo ATP luminescence', 'inactive'),
  ('O=C(N/N=C/c1ccc(Cl)s1)c1ccccc1[N+](=O)[O-]', 'S. cerevisiae Mot1-301 ts growth rescue, BacTiter-Glo ATP luminescence', 'inactive'),
  ('CC(C)Cc1cc(CN2CCC(CO)(Cc3ccccc3)CC2)[nH]n1', 'S. cerevisiae Mot1-301 ts growth rescue, BacTiter-Glo ATP luminescence', 'inactive'),
  ('N#CC(C#N)=CN=c1ccn(Cc2ccc(Cl)cc2Cl)cc1', 'S. cerevisiae Mot1-301 ts growth rescue, BacTiter-Glo ATP luminescence', 'inactive'),
  ('O=C1OCc2cc(NS(=O)(=O)c3cccs3)ccc21', 'S. cerevisiae Mot1-301 ts growth rescue, BacTiter-Glo ATP luminescence', 'inactive'),
  ('c1ccc(N2CCN(C3CCSC3)CC2)cc1 (centres undefined)', 'S. cerevisiae Mot1-301 ts growth rescue, BacTiter-Glo ATP luminescence', 'inactive'),
  ('CN(NC(=O)c1ccccc1F)c1nc(C(F)(F)F)nc2ccccc12', 'S. cerevisiae Mot1-301 ts growth rescue, BacTiter-Glo ATP luminescence', 'inactive'),
  ('O=C(/C=C/c1ccc(Cl)cc1Cl)Nc1cccc(S(=O)(=O)NC2=NCCCCC2)c1', 'S. cerevisiae Mot1-301 ts growth rescue, BacTiter-Glo ATP luminescence', 'inactive'),
  ('CS(=O)(=O)c1ccc(Cl)c(NC(=O)c2ccc3ccccc3c2)c1', 'S. cerevisiae Mot1-301 ts growth rescue, BacTiter-Glo ATP luminescence', 'inactive'),
  ('O=C1c2ccccc2NC(c2ccccc2O)N1O (centres undefined)', 'S. cerevisiae Mot1-301 ts growth rescue, BacTiter-Glo ATP luminescence', 'inactive'),
  ('COc1cccc(CNC(=O)CCCn2nc(C)c3c(C)n(-c4ccccc4)nc3c2=O)c1', 'S. cerevisiae Mot1-301 ts growth rescue, BacTiter-Glo ATP luminescence', 'inactive'),
  ('CCOC(=O)N1CCN(C(=O)c2ccc(OC)c(OC)c2)CC1', 'S. cerevisiae Mot1-301 ts growth rescue, BacTiter-Glo ATP luminescence', 'inactive'),
  ('COCCn1c(N)c(N(Cc2ccccc2)C(=O)CN2C(=O)NC(C)(c3ccccc3)C2=O)c(=O)[nH]c1=O (centres undefined)', 'S. cerevisiae Mot1-301 ts growth rescue, BacTiter-Glo ATP luminescence', 'inactive'),
  ('O=C1CC(c2ccccc2)c2ccc(O)cc2O1 (centres undefined)', 'S. cerevisiae Mot1-301 ts growth rescue, BacTiter-Glo ATP luminescence', 'inactive'),
  ('O=C(OCc1ccccc1)c1cccc(-c2nnn(Cc3ccccc3)n2)c1', 'S. cerevisiae Mot1-301 ts growth rescue, BacTiter-Glo ATP luminescence', 'inactive'),
  ('O=C(Nc1ccccn1)c1ccc(CN(c2ccccc2)S(=O)(=O)c2ccccc2)cc1', 'S. cerevisiae Mot1-301 ts growth rescue, BacTiter-Glo ATP luminescence', 'inactive'),
  ('CC1(C)CC(=O)C2=C(C1)OC(N)=C(C#N)C21C(=O)N(CN2CCOCC2)c2ccccc21 (centres undefined)', 'S. cerevisiae Mot1-301 ts growth rescue, BacTiter-Glo ATP luminescence', 'inactive'),
  ('Cc1ccccc1Nc1cc(=O)oc2ccccc12', 'S. cerevisiae Mot1-301 ts growth rescue, BacTiter-Glo ATP luminescence', 'inactive'),
  ('O=C(COC(=O)COc1ccccc1Cl)Nc1ccccc1OC(F)F', 'S. cerevisiae Mot1-301 ts growth rescue, BacTiter-Glo ATP luminescence', 'inactive'),
  ('O=C(COC(=O)c1c(F)cccc1F)c1ccc[nH]1', 'S. cerevisiae Mot1-301 ts growth rescue, BacTiter-Glo ATP luminescence', 'inactive'),
  ('CCOc1ccc(N(C(=O)C2CCCO2)C2C=CS(=O)(=O)C2)cc1 (centres undefined)', 'S. cerevisiae Mot1-301 ts growth rescue, BacTiter-Glo ATP luminescence', 'inactive'),
  ('CCOc1cc(/C=C2\NC(=O)NC2=O)ccc1OC(C)C(=O)O (centres undefined)', 'S. cerevisiae Mot1-301 ts growth rescue, BacTiter-Glo ATP luminescence', 'inactive'),
  ('Cc1nc2ccc(NC(=O)c3ccc(S(=O)(=O)N4CCOCC4)cc3)cc2s1', 'S. cerevisiae Mot1-301 ts growth rescue, BacTiter-Glo ATP luminescence', 'inactive'),
  ('COc1ccc2cc3c(N)nn(C(=O)c4ccccc4Cl)c3nc2c1', 'S. cerevisiae Mot1-301 ts growth rescue, BacTiter-Glo ATP luminescence', 'inactive'),
  ('CCC1CCCCN1CCCNC(=O)C1CCC(CNS(=O)(=O)c2c(C)cc(C)cc2C)CC1 (centres undefined)', 'S. cerevisiae Mot1-301 ts growth rescue, BacTiter-Glo ATP luminescence', 'inactive');
